Where do the numbers come from? From patent US7045528B2.

Test: Mouse PK assay
Type: in vivo
Details: mouse; po, 50 mg/kg, B6 female mice, plasma
Value Type: AUC (ng·h/mL)

* CNC(=O)c1c(C)n(C)c2cc(Oc3ccnc4cc(C(=O)N5CC[C@@H](OC)C5)sc34)ccc12 [Example 18] | 8720
* CNC(=O)c1c(C)sc2cc(Oc3ccnc4cc(C(=O)N5C[C@H](OC)[C@H](OC)C5)sc34)ccc12 [Example 5] | 12300
* CNC(=O)c1c(C)sc2cc(Oc3ccnc4cc(C(=O)N5CCC[C@H]5CO)sc34)ccc12 [Example 3] | 2450

a: Cc1sc2cc(Oc3ccnc4cc(C(=O)N5CCC[C@H]5CO)sc34)ccc2c1C(=O)NC1CC1 [Example 8]
b: CNC(=O)c1c(C)sc2cc(Oc3ccnc4cc(C(=O)N5CC[C@@H](OC)C5)sc34)ccc12 [Example 4]
c: CNC(=O)c1c(C)sc2cc(Oc3ccnc4cc(-c5nccn5C)sc34)ccc12 [Example 1]
d: CNC(=O)c1c(C)n(C)c2cc(Oc3ccnc4cc(-c5nccn5C)sc34)ccc12 [Example 17]
e: CNC(=O)c1c(C)sc2cc(Oc3ccnc4cc(C(=O)N5CC[C@@H](O)C5)sc34)ccc12 [Example 6]
Ask | In this exercise, place the 5 compounds in ascending sequence of their recorded AUC. List the labels according to the requested ordering.
Reply | e, a, b, d, c

----------
Target: unphosphorylated VEGF-R2Δ50 (FLVK) (Homo sapiens, UniProt P35968, DEL940-989/E990V)
Construct: VEGF-R2Δ50 contains residues 806–939 and 990–1171; made in house; host or cells: baculovirus/insect cell system
Sequence (P35968 with tags, fused parts or gaps DEL940-989/E990V limits assumed): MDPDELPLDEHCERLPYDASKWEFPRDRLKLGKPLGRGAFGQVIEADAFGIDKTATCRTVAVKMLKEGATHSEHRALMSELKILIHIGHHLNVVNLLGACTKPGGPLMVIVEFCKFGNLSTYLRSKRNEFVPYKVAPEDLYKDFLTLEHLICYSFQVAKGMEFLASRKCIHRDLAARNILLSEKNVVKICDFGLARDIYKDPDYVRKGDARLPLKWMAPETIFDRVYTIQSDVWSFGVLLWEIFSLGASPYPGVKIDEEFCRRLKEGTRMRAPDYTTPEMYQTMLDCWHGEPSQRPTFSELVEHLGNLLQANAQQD
Assay: VEGF-R2 coupled spectrophotometric assay, unphosphorylated VEGF-R2Δ50 (FLVK)
Format: biochemical
Details: 50 nM compound; unphosphorylated VEGF-R2Δ50; read-out: FLVK (% inh @ 50 nM)
Protocol: VEGF-R2 Construct for Assay: This construct determines the ability of a test compound to inhibit tyrosine kinase activity. […] The production of ADP from ATP that accompanies phosphoryl transfer was coupled to oxidation of NADH using phosphoenolpyruvate (PEP) and a system having pyruvate kinase (PK) and lactic dehydrogenase (LDH). The oxidation of NADH was monitored by following the decrease of absorbance at 340 nm (e340=6.22 cm^−1 mM^−1) using a Beckman DU 650 spectrophotometer. […]
Value Type: inhibition at 0.05 µM (%)

The examples below pair each entry with its known result.
* Cc1oc2cc(Oc3ccnc4ccsc34)ccc2c1C(=O)NCCN1CCOCC1 | 52
* Cc1c(C(=O)Nc2ccccn2)c2ccc(Oc3ccnc4cc(-c5nccn5C)sc34)cc2n1C | 95

P: CNC(=O)c1c(C)n(C)c2cc(Oc3ccnc4cc(-c5ccc(OC)cn5)sc34)ccc12
Q: CCc1oc2cc(Oc3ccnc4cc(C(=O)N5CCC[C@H]5COC)sc34)ccc2c1C(=O)NC
Ask | I need your help: which of the pair P , Q has higher inhibition at 0.05 µM? Could you answer with the label of the item you picked?
Reply | P

a: CNC(=O)c1c(C)n(C)c2cc(Oc3ccnc4cc(C(=O)N5CCCC5)sc34)ccc12
b: CNC(=O)c1c(C)n(C)c2cc(Oc3ccnc4cc(C(=O)N5CC[C@@H](N(C)C)C5)sc34)ccc12
Ask | Hello, I am sorting some records. Could you say if a or b has the smaller inhibition at 0.05 µM value? To answer, give the label that identifies your chosen option.
Reply | b
